# Assay: Metabolic stability screen in human liver microsomes
# Type: in vitro ADME
# Settings: substrate 10 µM, microsomal protein 0.1- 0.5 mg/ml, 1mM NADPH, pH 7.4, 37°C, 30 min incubation, LC/MS, read-out: Human Liver Microsomal Turnover
Value Type: metabolised at 0.5 h, 10 µM (%)

* CC(C)(Oc1ccc(Cl)cc1)C(=O)NC1C2CC3CC(C2)CC1C3 (stereo not shown) | 88
